Give log10 of MIC for every item shown.
- Test system: Staphylococcus aureus
- Measurement notes: Antibacterial activity against gram positive Staphylococcus aureus(MTCC 96)
- Format: functional
A difference of one corresponds to tenfold MIC; all values are log10 with MIC in µg/mL.

Find the recorded log10 of MIC belonging to O=c1cc(-c2ccccc2)oc2cc(OCCCCCCN3CCOCC3)cc(O)c12 and report it.
1.40

Find the recorded log10 of MIC belonging to CC1(C)S[C@@H]2[C@H](NC(=O)Cc3ccccc3)C(=O)N2[C@H]1C(=O)O and report it.
0.19

Find the recorded log10 of MIC belonging to O=c1cc(-c2ccccc2)oc2cc(O)cc(O)c12 and report it.
1.70

Find the recorded log10 of MIC belonging to CN[C@@H]1[C@H](O[C@H]2[C@H](O[C@H]3[C@H](O)[C@@H](O)[C@H](N=C(N)N)[C@@H](O)[C@@H]3N=C(N)N)O[C@@H](C)[C@]2(O)C=O)O[C@@H](CO)[C@H](O)[C@H]1O and report it.
0.80

Find the recorded log10 of MIC belonging to CN1CCN(CCCCOc2cc(O)c3c(=O)cc(-c4ccccc4)oc3c2)CC1 and report it.
1.10

Find the recorded log10 of MIC belonging to O=c1cc(-c2ccccc2)oc2cc(OCCCN3CCCCC3)cc(O)c12 and report it.
1.10

Find the recorded log10 of MIC belonging to CN1CCN(CCCOc2cc(O)c3c(=O)cc(-c4ccccc4)oc3c2)CC1 and report it.
1.40

Find the recorded log10 of MIC belonging to CN(C)CCCOc1cc(O)c2c(=O)cc(-c3ccccc3)oc2c1 and report it.
1.10
